experiment: recombinant barcode read abundance after kanamycin selection (control-corrected) (log10(CPM+1)); higher = more efficient recombination; sequences stand for … in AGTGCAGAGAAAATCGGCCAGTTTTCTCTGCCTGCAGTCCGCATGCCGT…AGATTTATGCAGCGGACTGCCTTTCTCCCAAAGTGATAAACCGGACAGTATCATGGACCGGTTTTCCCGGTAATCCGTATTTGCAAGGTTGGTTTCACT; site = the 11-nt target;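 further: IS621 recombinase and bridge RNA in Escherichia coli cells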
Listed below: recombinant barcode read abundance (log10) values for each entry.
value_kind: recombinant barcode read abundance (log10)

seq: CCGCCTCCTTGGGTTCTAACCTGTTGCGA (site CCGCGTCCTTA)
assay_result: 0.0484
--
seq: CCAGGAGCTTGGGTTCTAACCTGTTGCCT (site CCAGAAGCTAG)
assay_result: 0.338
--
seq: AGGTAACCTTGGGTTCTAACCTGTTGCCT (site GGGTAACCTAG)
assay_result: 0.885
--
seq: CTACTAACTTGGGTTCTAACCTGTTGCGT (site CTACTAACTAT)
assay_result: 0.129
--
seq: TACGTGTCTTGGGTTCTAACCTGTTGCTA (site TACGTGTCTTA)
assay_result: 2.19
--
seq: CCTCAGACTTGGGTTCTAACCTGTTGCGA (site CTTCAGACTTA)
assay_result: 0.0629
--
seq: ATGGGCCCTTGGGTTCTAACCTGTTGCTG (site ATGGGCCCTAA)
assay_result: 0.13
--
seq: TCCCTATCTTGGGTTCTAACCTGTTGCCT (site TCCCTATCTAG)
assay_result: 0.758
--
seq: CGCTAGTCTTGGGTTCTAACCTGTTGCCT (site CGCTTGTCTAG)
assay_result: 0.0462
--
seq: CCAGAAGCTTGGGTTCTAACCTGTTGCCT (site CCAGAAGCTAG)
assay_result: 0.179

* * *

test: recombinant barcode read abundance after kanamycin selection (control-corrected) (log10(CPM+1)); higher = more efficient recombination; sequences stand for … in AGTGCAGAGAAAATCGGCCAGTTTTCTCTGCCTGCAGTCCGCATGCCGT…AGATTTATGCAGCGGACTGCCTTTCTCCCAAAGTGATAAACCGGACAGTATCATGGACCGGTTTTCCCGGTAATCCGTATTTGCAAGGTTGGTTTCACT; site = the 11-nt target
Label MET for high-side recombinant barcode read abundance (log10) (at or above 0.4) and NOT MET for low-side recombinant barcode read abundance (log10) (below it).

seq: ATGTCCTCTTGGGTTCTAACCTGTTGCCT (site ATGGCCTCTAG)
group_label: NOT MET
//
seq: CGGACGACTTGGGTTCTAACCTGTTGCCT (site CGGACGACTAG)
group_label: MET
//
seq: TTCACACCTTGGGTTCTAACCTGTTGCCT (site TTCACACCTAG)
group_label: NOT MET
//
seq: TATGTAGCTTGGGTTCTAACCTGTTGCCA (site TATGTAGCTTG)
group_label: MET
//
seq: AGTCTCTCTTGGGTTCTAACCTGTTGCTA (site AGTCTCTCTTA)
group_label: MET
//
seq: AGCCTGACTTGGGTTCTAACCTGTTGCCT (site AGCCTGGCTAG)
group_label: NOT MET
//
seq: GTAAATGCTTGGGTTCTAACCTGTTGCCT (site GTAAATGCTAG)
group_label: MET
//
seq: CGCCTCACTTGGGTTCTAACCTGTTGCCT (site CGCCTCACTAG)
group_label: NOT MET
//
seq: GACCCACCTTGGGTTCTAACCTGTTGCCT (site CACCCACCTAG)
group_label: MET
